- experiment.notes: Clearance in mouse at 5 mg/kg, iv and 10 mg/kg, po
- Assay type: ADME, organism-based
- measurement.conditions: in vivo

smiles.notation | clearance
Cc1ccc(-c2nc(N)c3cc(Cc4ccccc4)sc3n2)o1 | 69 mL/min/kg

###

- experiment.notes: Ratio of drug level in brain to plasma in rat at 2 mg/kg, iv and 10 mg/kg, po measured at 1 hr
- Assay type: ADME, organism-based
- measurement.conditions: read-out: BPR

smiles.notation | Kp at 1 h
Cc1ccc(-c2nc(N)c3cc(Cc4ccccc4)sc3n2)o1 | 1.2

###

- experiment.notes: Clearance in rat at 2 mg/kg, iv and 10 mg/kg, po
- Assay type: ADME, organism-based
- measurement.conditions: in vivo

smiles.notation | clearance, mL/min/kg
Cc1ccc(-c2nc(N)c3cc(Cc4ccccc4)sc3n2)o1 | 65

###

- experiment.notes: Cmax in rat at 10 mg/kg, po
- Type: ADME, organism-based
- Design: dose 10 mg/kg, route oral
- measurement.conditions: in vivo

smiles.notation | unit.string | Cmax
Cc1ccc(-c2nc(N)c3cc(Cc4ccccc4)sc3n2)o1 | nM | 2980

###

- test.target: UniProt P30542
- Sequence (P30542 whole entry): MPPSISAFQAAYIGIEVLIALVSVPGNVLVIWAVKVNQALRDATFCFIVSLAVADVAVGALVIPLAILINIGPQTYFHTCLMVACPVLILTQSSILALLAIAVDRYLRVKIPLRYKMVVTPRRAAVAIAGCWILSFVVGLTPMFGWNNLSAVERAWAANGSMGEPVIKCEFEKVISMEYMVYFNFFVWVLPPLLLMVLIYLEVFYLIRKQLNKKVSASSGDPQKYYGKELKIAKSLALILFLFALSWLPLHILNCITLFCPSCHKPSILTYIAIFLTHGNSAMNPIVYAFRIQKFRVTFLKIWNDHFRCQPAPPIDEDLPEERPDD
- experiment.notes: Antagonist activity at human adenosine A1 receptor expressed in CHOK1 cells assessed as inhibition of R-PIA/forskolin-induced cAMP accumulation incubated for 15 mins prior to R-PIA/forskolin challenge measured after 5.5 to 6 hrs by beta-galactosidase reporter gene assay
pKi: −log10 of the molar value.

smiles.notation | test.target | relation.symbol | pKi
Cc1csc(-c2nc(N)c3cc(Cc4ccccc4Cl)sc3n2)n1 | UniProt P30542 | = | 7.30
Cc1ccc(-c2nc(N)c3cc(Cc4ccccc4Cl)sc3n2)o1 | UniProt P30542 | = | 7.58
N#Cc1cccc(-c2nc(N)c3cc(Cc4ccccc4Cl)sc3n2)c1 | UniProt P30542 | = | 7.61
N#Cc1cccc(-c2nc(N)c3cc(Cc4ccccc4)sc3n2)n1 | UniProt P30542 | < | 6.00
N#Cc1cccc(-c2nc(N)c3cc(Cc4ccccc4F)sc3n2)c1 | UniProt P30542 | > | 7.80
Cc1ccc(-c2nc(N)c3cc(Cc4ccccc4F)sc3n2)o1 | UniProt P30542 | > | 7.80

###

- experiment.notes: Half life in mouse at 10 mg/kg, po
- Type: ADME, organism-based
- Parameters: dose 10 mg/kg, route oral
- measurement.conditions: in vivo
parameter.measured: half-life

smiles.notation | value.reported
Cc1ccc(-c2nc(N)c3cc(Cc4ccccc4)sc3n2)o1 | 18 min

###

- test.target: Adenosine receptor A2a (Homo sapiens, UniProt P29274)
- Sequence (P29274 whole entry): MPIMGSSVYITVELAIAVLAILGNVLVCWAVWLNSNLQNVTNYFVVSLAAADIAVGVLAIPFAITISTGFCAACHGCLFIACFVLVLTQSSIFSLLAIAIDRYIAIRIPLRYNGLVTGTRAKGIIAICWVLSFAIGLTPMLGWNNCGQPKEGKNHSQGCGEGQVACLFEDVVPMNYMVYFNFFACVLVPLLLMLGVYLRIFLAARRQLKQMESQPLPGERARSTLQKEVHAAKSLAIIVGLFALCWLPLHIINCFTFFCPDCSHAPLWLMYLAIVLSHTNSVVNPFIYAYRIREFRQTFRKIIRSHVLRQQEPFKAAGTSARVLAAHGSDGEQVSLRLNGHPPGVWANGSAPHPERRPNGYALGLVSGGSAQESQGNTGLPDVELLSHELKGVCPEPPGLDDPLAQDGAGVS
- experiment.notes: Antagonist activity at human adenosine A2a receptor expressed in CHOK1 cells assessed as inhibition of NECA/forskolin-induced cAMP accumulation incubated for 15 mins prior to NECA/forskolin challenge measured after 5.5 to 6 hrs by beta-galactosidase reporter gene assay
parameter.measured: Ki (µM)

smiles.notation | value.reported
Cc1csc(-c2nc(N)c3cc(Cc4ccccc4F)sc3n2)n1 | 0.0097
N#Cc1cccc(-c2nc(N)c3cc(Cc4ccccc4)sc3n2)c1 | 0.0114
COc1ccccc1Cc1cc2c(N)nc(-c3ccc(C)o3)nc2s1 | 0.011
N#Cc1cccc(-c2nc(N)c3cc(Cc4ccccc4F)sc3n2)c1 | 0.0073
Nc1nc(-c2ncccn2)nc2sc(Cc3ccccc3)cc12 | 0.0171
Nc1nc(-c2cnco2)nc2sc(Cc3ccccc3)cc12 | 0.009

Hello, the source for this data is ChEMBL document CHEMBL2375358, in case you need it.
